- Assayed Target: HDAC1 (Homo sapiens, UniProt Q13547)
- Construct: purchased Cayman Chemicals, Ann Arbor, USA
- Sequence (Q13547 whole entry): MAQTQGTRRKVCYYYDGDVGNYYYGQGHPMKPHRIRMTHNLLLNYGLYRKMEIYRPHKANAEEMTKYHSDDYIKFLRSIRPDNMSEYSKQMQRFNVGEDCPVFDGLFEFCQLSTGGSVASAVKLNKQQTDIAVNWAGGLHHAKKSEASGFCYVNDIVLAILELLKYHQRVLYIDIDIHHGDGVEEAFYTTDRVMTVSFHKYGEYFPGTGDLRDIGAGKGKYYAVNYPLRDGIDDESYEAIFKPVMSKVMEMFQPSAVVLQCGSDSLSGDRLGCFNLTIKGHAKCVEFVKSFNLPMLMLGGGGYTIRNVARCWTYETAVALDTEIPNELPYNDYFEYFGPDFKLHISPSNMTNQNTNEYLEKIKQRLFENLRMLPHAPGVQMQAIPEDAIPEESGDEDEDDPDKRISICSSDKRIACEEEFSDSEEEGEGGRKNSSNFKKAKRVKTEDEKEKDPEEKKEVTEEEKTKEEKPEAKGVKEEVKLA
- Assay Comment: Cayman HDAC1 Inhibitor Screening Assay Kit (fluorescence)
- Assay type: biochemical
- Condition Details: at 200 μM
Readout Kind: IC50 (nM)
Lab book: enter the figure in nM, no units written.

Quick note, IC50 for "O=C(CCCCCCC(=O)Nc1ccc(CC(C(=O)O)C(=O)O)cc1)NO" landed at 59.5

====

- Tested on: ovarian cancer cell line A2780 P
- Assay Comment: MTS in vitro cytotoxicity, A2780 P
- Format: cell-based, human
- Condition Details: 72 hours, MTS, Table 5; read-out: IC50 (μM) ± S.E.M. against A2780P
- Procedure: Cells were cultured in the appropriate media. […] In order to retain resistance 1 μM cisplatin was added to the media of the A2780 cisR cells every third passage. […] All cells were kept in a humidified atmosphere with 5% CO2 at 37° C.; cells from confluent monolayers were removed from flasks by trypsin/EDTA solution and their viability determined by the trypan blue exclusion test. […]
Would you mind telling me the reported IC50 of each entry?
# output: bare number, implied unit µM

Measured IC50, [NH2][Pt]1([NH2])[O]C(=O)C(Cc2ccc(NS(=O)(=O)c3ccc(/C=C/C(=O)NO)cc3)cc2)C(=O)[O]1 [cis-[Pt(NH3)2(malBel−2H)], cis-[Pt(NH3)2(malBel−2H)].1.5H2O] : 7.6

Documented IC50 of N.N.[Cl][Pt][Cl] [cisplatin, cis-[Pt^II(NH3)2Cl2], reference compound] : 1.3

IC50 measured on "O=C(/C=C/c1ccc(S(=O)(=O)Nc2ccc(CC(C(=O)O)C(=O)O)cc2)cc1)NO" = 45.8
